Ref: paper PMC5540273

# Test system: JNK3
# Construct: gene MAPK10
# reported_conditions: concentration: 1 μM,replicates: in singlicate; n = 1
Examples of molecules with documented %Inh follow.
Record the value in %, omitting the unit from your answer.

Worked examples follow.
molecule	study_target	display_unit	%Inh
CC(=O)c1c(-c2ccncc2)[nH]c(-c2ccncc2)c1C [GW493036]	JNK3	%	11
CN1CCN(CCNc2nc3cc(Oc4ccc(NC(=O)Nc5cc(C(F)(F)F)ccc5F)cc4)ccc3[nH]2)CC1.Cl.Cl [GW768504]	JNK3	%	0
CN1CCN(CCCNc2nccc(-c3c(-c4ccc(F)cc4)nn4cc(C(N)=O)ccc34)n2)CC1 [GW622475]	JNK3	%	99.6

Now for the molecule whose %Inh we want.
Lookup: API: value(readout=%Inh, system=JNK3) for record `C[C@@H]1CNc2c(sc3ccc4nc(-c5ccncc5)ccc4c23)C(=O)N1`;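 further: KINOMEscan kinase panel screen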
Found: 0
